- System: DMS 273 small cell lung
- Assay protocol: NCI tumour cell line growth inhibition, 48 h
Give TGI for every item shown.

Value of measured TGI for the entry `Cc1ccc(-c2c(N)[n+]([O-])c3ccccc3[n+]2[O-])cc1` : 29.5 µM

Value of measured TGI for the entry CCC12C[N+]3([O-])CCc4c([nH]c5ccccc45)C(C(=O)OC)(c4cc5c(cc4OC)N(C)C4C(O)(C(=O)OC)C(OC(C)=O)C6(CC)C=CCN7CCC54C76)CC(C3)C1O2 (configuration not stated) : 12.2 µM

Value of measured TGI for the entry COc1nc(NC2OCC(OC(C)=O)C(OC(C)=O)C2OC(C)=O)c(N=CC=Nc2c(NC3OCC(OC(C)=O)C(OC(C)=O)C3OC(C)=O)nc(OC)n(C)c2=O)c(=O)n1C (configuration not stated) : > 100 µM

Value of measured TGI for the entry COc1cccc(NC(=O)CC(=O)N2N=C(N(CCC#N)c3ccc(Cl)cc3)CC2c2ccccc2)c1 (configuration not stated) : > 100 µM

Value of measured TGI for the entry `C/C(=C\c1ccccc1)C(=O)CCN1CCOCC1` : 35.3 µM

Value of measured TGI for the entry CCC(C(=O)O)c1ccc(OCc2ccccc2)cc1 (configuration not stated) : > 100 µM

Value of measured TGI for the entry `Cc1cc(N(CCC#N)S(=O)(=O)c2ccccc2)ccc1/C=C1N=C(/C=C/c2ccccc2)OC\1=O` : > 100 µM

Value of measured TGI for the entry CC(C)(C)OC(=O)C#CC[C@H]1CCCC1/C=C/C(O)=C1/C(=O)NC(CCCNC(=O)OC(C)(C)C)C1=O (some centres not stated) : 65.9 µM

Value of measured TGI for the entry Cc1cccc(NC(=O)CC(=O)N2N=C(N(CCC#N)c3ccc(Cl)cc3)CC2c2ccccc2)c1 (configuration not stated) : > 100 µM

Value of measured TGI for the entry `O=Cc1cn(C(=O)c2ccccc2)c2ccccc12` : > 100 µM

Value of measured TGI for the entry CC1CCCCc2nc3c(c(=O)n21)CCCC3 (configuration not stated) : > 100 µM

Value of measured TGI for the entry `CC(=O)NNc1nc(C)c(C(=O)NNC(=O)C(=O)Nc2ccccc2C#N)s1` : > 100 µM

Value of measured TGI for the entry `COc1ccc(-c2cc(=O)c3cc4c(cc3[nH]2)OCO4)c(OC)c1OC` : > 100 µM

Value of measured TGI for the entry `CCCCCCCCCCCCOC(=S)NCCCC` : 41 µM

Value of measured TGI for the entry `COc1cc(/C=C2\C(=O)N(C(=O)Cc3ccccc3)N=C2C)ccc1O` : > 100 µM

Value of measured TGI for the entry `C=C1C(=O)O[C@H]2[C@H]1[C@H](OC(=O)/C(C)=C\C)CC(=C)[C@@H]1[C@H](O)[C@H]3O[C@@]3(C)[C@@]12O` : > 100 µM

Value of measured TGI for the entry `Cc1ccncc1.[O]=[Ge].[O]=[Ge].[O]=[Ge].[O]=[Ge].[O]=[Ge].[O]=[Ge][OH].[O]=[Ge][OH]` : > 100 µM
